Attribution: patent US20210100905A1

test_description: In vivo delivery experiment of lipid nucleic acid mixture (Example 13)
Set-up: species or system C57 mice
measurement_setup: oral administration, 100 μg lipid : 1 nmol sRNA per mouse, 90° C. 15 min, 6 hours
test_readout: delivery of small RNA (PGY-sRNA-26) into blood

# query: delivery of small RNA (PGY-sRNA-26) into blood of entry CC/C=C\C/C=C\C/C=C\CCCCCCCC(=O)OCC(COC(=O)CCCCCCCCCCCCCCCCC)OC(=O)CCCCCCC/C=C\C/C=C\CCCCC (stereo not drawn) [No. 66, Triglyceride (18:0/18:2/ 18:3)] delivers small RNA

Thanks! And "CCCCCCCCCCCCCCCCCC(=O)OCC(COC(=O)CCCCCCCCCCCCCCCCC)OC(=O)CCCCCCCCCCCCCCC" ? delivers small RNA

One more compound: CCCCCCCCCCCCCCCCCC(=O)N[C@@H](CO)[C@H](O)CCCCCCCCCCCCCCCCC [No. 54, C18 dihydroceramide (d20:0/18:0)] delivers small RNA

----------
test_description: In vivo delivery experiment of lipid nucleic acid mixture (Example 13)
Parameters: species or system C57 mice
measurement_setup: oral administration, 100 μg lipid : 1 nmol sRNA per mouse, 90° C. 15 min, 6 hours
test_readout: delivery of small RNA (PGY-sRNA-26) into blood

Fill in: delivery of small RNA (PGY-sRNA-26) into blood of CCCCCCCCCCCCCCCCCCC[C@@H](O)[C@H](CO)NC(=O)CCCCCCCCCCCCCCCCC [No. 55, C18 dihydroceramide (d22:0/18:0)] is ___ delivers small RNA

Then this compound: CCCCCCCCCCCCCCCC(=O)N[C@@H](CO)[C@H](O)CCCCCCCCCCCCC [No. 53, C16 dihydroceramide (d16:0/16:0)] delivers small RNA

// query: CC/C=C\C/C=C\C/C=C\CCCCCCCC(=O)OCC(COC(=O)CCCCCCCCCCCCCCC)OC(=O)CCCCCCC/C=C\C/C=C\CCCCC (stereo not drawn) [No. 56, Triglyceride (16:0/18:2/ 18:3)] delivers small RNA
